system-tested: Albumin (Bos taurus, UniProt P02769)
Sequence (P02769 whole entry): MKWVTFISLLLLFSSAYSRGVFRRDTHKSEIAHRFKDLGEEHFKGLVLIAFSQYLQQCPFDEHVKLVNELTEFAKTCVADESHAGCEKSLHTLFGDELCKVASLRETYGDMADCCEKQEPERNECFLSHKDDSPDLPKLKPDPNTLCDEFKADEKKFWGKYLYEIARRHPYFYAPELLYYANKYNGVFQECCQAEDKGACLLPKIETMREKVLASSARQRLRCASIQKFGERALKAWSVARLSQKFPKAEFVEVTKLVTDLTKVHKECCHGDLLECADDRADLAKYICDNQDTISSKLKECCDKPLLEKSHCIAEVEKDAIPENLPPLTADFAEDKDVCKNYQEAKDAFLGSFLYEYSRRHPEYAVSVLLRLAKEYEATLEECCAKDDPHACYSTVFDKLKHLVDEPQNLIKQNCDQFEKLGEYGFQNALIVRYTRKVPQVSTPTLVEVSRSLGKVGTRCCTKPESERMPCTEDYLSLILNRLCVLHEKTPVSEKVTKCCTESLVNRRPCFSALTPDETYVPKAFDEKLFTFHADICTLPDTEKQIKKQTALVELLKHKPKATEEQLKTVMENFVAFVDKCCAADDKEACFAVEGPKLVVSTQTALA
method-notes: Inhibition of glycation of bovine serum albumin assessed as advanced glycated end product measured after 7 days by spectrofluorimeter in presence of glucose anhydrous
test-conditions: read-out: IC50
pIC50: −log10 of the molar value.
Respond with criterion met for pIC50 values of 5 and above, criterion not met for values below.

{"compound": "COc1ccccc1NC(=S)NCC(=O)N1CCC(c2noc3cc(F)ccc23)CC1", "system-tested": "Albumin (Bos taurus, UniProt P02769)", "class-assignment": "criterion met"}
{"compound": "O=C(C1CCCN1C(=O)Nc1cccc(Cl)c1)N1CCC(c2noc3cc(F)ccc23)CC1 (centres undefined)", "system-tested": "Albumin (Bos taurus, UniProt P02769)", "class-assignment": "criterion not met"}
{"compound": "COc1cccc(NC(=S)NCC(=O)N2CCC(c3noc4cc(F)ccc34)CC2)c1", "system-tested": "Albumin (Bos taurus, UniProt P02769)", "class-assignment": "criterion not met"}
{"compound": "O=C(NCC(=O)N1CCC(c2noc3cc(F)ccc23)CC1)Nc1ccc(F)cc1", "system-tested": "Albumin (Bos taurus, UniProt P02769)", "class-assignment": "criterion not met"}
{"compound": "O=C(C1CCCN1C(=O)Nc1ccccc1)N1CCC(c2noc3cc(F)ccc23)CC1 (centres undefined)", "system-tested": "Albumin (Bos taurus, UniProt P02769)", "class-assignment": "criterion not met"}
{"compound": "C[C@@H]1O[C@@H](OC[C@H]2O[C@@H](Oc3c(-c4ccc(O)c(O)c4)oc4cc(O)cc(O)c4c3=O)[C@H](O)[C@@H](O)[C@@H]2O)[C@H](O)[C@H](O)[C@H]1O [RUTIN]", "system-tested": "Albumin (Bos taurus, UniProt P02769)", "class-assignment": "criterion not met"}
{"compound": "O=C(C1CCCN1C(=O)Nc1ccc(F)cc1)N1CCC(c2noc3cc(F)ccc23)CC1 (centres undefined)", "system-tested": "Albumin (Bos taurus, UniProt P02769)", "class-assignment": "criterion not met"}
{"compound": "O=C(C1CCCN1C(=O)Nc1cccc(F)c1)N1CCC(c2noc3cc(F)ccc23)CC1 (centres undefined)", "system-tested": "Albumin (Bos taurus, UniProt P02769)", "class-assignment": "criterion not met"}
{"compound": "O=C(NCC(=O)N1CCC(c2noc3cc(F)ccc23)CC1)Nc1ccccc1F", "system-tested": "Albumin (Bos taurus, UniProt P02769)", "class-assignment": "criterion not met"}
{"compound": "O=C(CNC(=S)Nc1ccccc1)N1CCC(c2noc3cc(F)ccc23)CC1", "system-tested": "Albumin (Bos taurus, UniProt P02769)", "class-assignment": "criterion not met"}
{"compound": "COc1ccccc1NC(=S)N1CCCC1C(=O)N1CCC(c2noc3cc(F)ccc23)CC1 (centres undefined)", "system-tested": "Albumin (Bos taurus, UniProt P02769)", "class-assignment": "criterion met"}
{"compound": "COc1ccc(NC(=O)NCC(=O)N2CCC(c3noc4cc(F)ccc34)CC2)cc1", "system-tested": "Albumin (Bos taurus, UniProt P02769)", "class-assignment": "criterion not met"}
{"compound": "COc1ccc(NC(=S)N2CCCC2C(=O)N2CCC(c3noc4cc(F)ccc34)CC2)cc1 (centres undefined)", "system-tested": "Albumin (Bos taurus, UniProt P02769)", "class-assignment": "criterion met"}
{"compound": "O=C(CNC(=S)Nc1ccc(F)cc1)N1CCC(c2noc3cc(F)ccc23)CC1", "system-tested": "Albumin (Bos taurus, UniProt P02769)", "class-assignment": "criterion not met"}
{"compound": "COc1ccccc1NC(=O)NCC(=O)N1CCC(c2noc3cc(F)ccc23)CC1", "system-tested": "Albumin (Bos taurus, UniProt P02769)", "class-assignment": "criterion not met"}
{"compound": "O=C(C1CCCN1C(=S)Nc1ccc(F)cc1)N1CCC(c2noc3cc(F)ccc23)CC1 (centres undefined)", "system-tested": "Albumin (Bos taurus, UniProt P02769)", "class-assignment": "criterion not met"}
{"compound": "COc1cccc(NC(=O)N2CCCC2C(=O)N2CCC(c3noc4cc(F)ccc34)CC2)c1 (centres undefined)", "system-tested": "Albumin (Bos taurus, UniProt P02769)", "class-assignment": "criterion not met"}
